FYI, the data here is from patent US20010029304A1.

Tested on: Dog intraocular pressure
assay: Dog intraocular pressure (applanation pneumatonometry) with hyperemia/miosis
Format: in vivo
condition: 0.1%, 25 μl to the ocular surface; IOP before and at 6 hours after drug
recorded_metric: Dog IOP (1 day)

# input // lookup Dog IOP (1 day) for Cc1ccc(CCC(O)/C=C/C2C(O)CC(O)[C@@H]2C/C=C\CCCC(N)=O)o1 (stereo partly shown)
# output 0.1%/−2.1

# input Look up Dog IOP (1 day): NC(=O)CCC/C=C\C[C@H]1C(O)CC(O)C1/C=C/C(O)CCc1ccco1 (stereo partly shown)
# output −4.4

# input So what does the record say about Dog IOP (1 day) for Cc1ccc(CCC(O)/C=C/C2C(O)CC(O)[C@@H]2C/C=C\CCCC(=O)O)o1 (stereo partly shown) ?
# output 0.1%/−2.7

# input What measured Dog IOP (1 day) goes with Cc1cc(CCC(O)/C=C/C2C(O)CC(O)[C@@H]2C/C=C\CCCC(N)=O)cs1 (stereo partly shown) ?
# output 0.1%/−3.6
